pKi: −log10 of the molar value.
Compiled notes: published pKi values involving Adenosine receptor A1 (Homo sapiens, UniProt P30542).
property.measured: pKi

Here are 5 compounds together with their reported answers.
| smiles.entry | pKi |
| --- | --- |
| COc1c(C(=O)Nc2nccs2)ccc(NC(=O)CC(C)(C)C)c1F | 6.66 |
| CNc1nc(-n2cc(-c3ccccn3)nn2)nc2c1ncn2[C@@H]1O[C@H](CO)[C@@H](O)[C@H]1O | 5.71 |
| COc1ccc(CCCn2ncc3c2nc(N)n2nc(-c4ccco4)nc32)cc1 | 5.95 |
| Nc1nc(C(=O)NCc2cccc3cccnc23)c2cccc(OC(F)(F)F)c2n1 | 7.70 |
| CCCn1c(=O)c2nc(-c3cnn(Cc4ccc(Cl)cc4)c3)[nH]c2n(CCC)c1=O | 8.15 |

I. OC[C@H]1O[C@@H](n2cnc3c(NCCCCc4ccccc4)ncnc32)[C@H](O)[C@@H]1O
II. Cc1ccc(-c2nc(NC(=O)CN3CCN(C)CC3)cc(-n3nccc3C)n2)o1
Lookup: Which value of pKi is numerically greater: that of I or that of II ? Kindly state the label of the option you pick.
Found: II
(II: 6.41, I: 6.06)

1. COc1ccc(C(=O)Nc2nc(-c3ccccc3)c(-c3nc(N)nc(N(C)C)n3)s2)cc1
2. O=C(c1nnc(NC2CCCC2)c2cc(Cl)c(Cl)cc12)N1CCC(O)CC1
Lookup: Which value of pKi is numerically greater: that of 1 or that of 2 ? Kindly state the label of the option you pick.
Found: 2

* * *

Compiled notes: published Ki values involving Adenosine receptor A1 (Homo sapiens).
property.measured: Ki (nM)

| molecule | Ki (nM) |
| --- | --- |
| CCCn1c(=O)c2nc(-c3ccc(OCc4noc(-c5ccc(C(F)(F)F)cc5)n4)cc3)[nH]c2n(CCC)c1=O | 5180 |
| Nc1nc(-c2ccccc2)cn2cc(-c3ccco3)nc12 | 143 |
| C=CCN1C(=O)N2C[C@@H](CC)N=C2c2[nH]c(-c3cc(OC)nn3C)nc21 | 2520 |

I. CCCSc1nc(NC(=O)CC)cc(OC)n1
II. Cn1cc2c(nc(NC(=O)Cc3cccc4ccccc34)n3nc(-c4ccco4)nc23)n1
Lookup: // compare: I vs II , metric Ki, want the smaller Kindly state the label of the option you pick.
Found: I

P. Nc1nc(-c2ccc(OCC(O)CO)cc2)cn2c(=O)n(-c3ccccc3)nc12 (stereo not given)
Q. CN(C)c1nc2nn(C)cc2c2nc(-c3ccco3)nn12
Lookup: // compare: P vs Q , metric Ki, want the smaller Kindly state the label of the option you pick.
Found: P
(P: 364 nM, Q: 4760 nM)

* * *

Compiled notes: published pKi values involving Adenosine receptor A1 (Homo sapiens).
pKi: −log10 of the molar value.
property.measured: pKi

Here are 3 compounds together with their reported answers.
| compound | assay.value |
| --- | --- |
| CC(C)n1cc2c(Cl)nc(NC(=O)c3ccc(C(F)(F)F)cc3)nc2n1 | 4.86 |
| O=C(N/N=N/c1nc(NCC(c2ccccc2)c2ccccc2)c2ncn([C@@H]3O[C@H](CO)[C@@H](O)[C@H]3O)c2n1)Nc1ccccc1 | 8.51 |
| CN(C)c1nc(-c2cn[nH]c2)c2sccc2n1 | 5.26 |

I. Cc1ccc(-c2nc(N)c3nc(-c4ccccc4)sc3n2)o1
II. Nc1nc(-c2ccc(OCC(O)CN3CCOCC3)cc2)cn2c(=O)n(-c3ccccc3)nc12 (stereo unspecified)
III. CC(C)CCn1cc2c(nc(NC(=O)COc3ccccc3)n3nc(-c4ccco4)nc23)n1
Lookup: Task field, ranking: reported pKi, descending order. Use the labels to give the requested order.
Found: I, III, II

I. O=c1c2ncn3nc(-c4ccccc4)cc3c2c(-c2cccc(F)c2)nn1Cc1ccccc1
II. CCOC(=O)c1c(NC(=O)c2sc(Nc3ccccc3)nc2N(C)C)sc2c1CCCC2
III. CCN[C@H]1CCN(CC(=O)Nc2cc(-n3nc(C)cc3C)nc(-c3ccc(C)o3)n2)C1
Lookup: Exam item: list the entries in increasing order of pKi. Use the labels to give the requested order.
Found: II, III, I
(II: 4.39, III: 6.43, I: 7.03)

A. CC(C)n1cnc2ncnc(N)c21
B. CCCn1c(Br)nc2c(N)ncnc21
Lookup: Which value of pKi is numerically greater: that of A or that of B ? Kindly state the label of the option you pick.
Found: B

A. CC(C)(C)Cn1cc2c(Cl)nc(NC(=O)c3ccccc3)nc2n1
B. CCCn1c(=O)c2nc(-c3ccc(OCc4nc(-c5ccc(C)cc5)no4)cc3)[nH]c2n(CCC)c1=O
C. Nc1nc(-c2cccs2)nc2cn(-c3ccccc3)nc12
Lookup: Task field, ranking: reported pKi, descending order. Use the labels to give the requested order.
Found: C, B, A
